system: pronase; test: Proteolytic degradation assay with pronase (RP-HPLC, MALDI-TOF-MS); assay type: in vitro ADME; settings: Streptomyces griseus, pronase (isolated proteolytic enzyme) in DPBS; pronase 0.35 U/mL in DPBS, 37° C., 50 μM peptide, after 3 hours; read-out: peptide cleavage
Peptide text beside a SMILES is read from it. * marks the point of attachment. X1 = O=C1C2C3C=CC(C3)C2C(=O)N1CC(=O)*
measurementName: metabolised at 3 h, 50 μM

Find the recorded metabolised at 3 h, 50 μM belonging to NCCCC[C@H](NC(=O)CNC(=O)[C@H](CO)NC(=O)CNC(=O)[C@H](CO)NC(=O)CNC(=O)CN1C(=O)C2C3C=CC(C3)C2C1=O)C(N)=O (stereo partly shown) [GGSGSGK] (X1-GSGSGK-NH2; N-terminus assumed) and report it.
~75%
